assay: M. tuberculosis growth inhibition, HTS (AID 1259417);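 note: bacteria grown with compound for 5 days at 37 °C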; conditions: M. tuberculosis growth inhibition; stronger effect = higher value; concentration not given here
In all, about 1,100 compounds went through this assay and about 760 (69%) were called active. The set was probably picked from earlier hits. The list shows a part of the results.
PROPERTY NAME: inhibition (%)
Write the answer as a number in %, unit excluded.

I am curious: what inhibition value has been reported for CCc1c(C)c2ccc(OCC(=O)OC)c(C)c2oc1=O ? 89.1

I am curious: what inhibition value has been reported for CCn1nnc(NC(=O)COc2ccc(C3CCCCC3)cc2)n1 ? 86.6

I am curious: what inhibition value has been reported for Cc1cc(OCC(=O)NC2C3CC4CC(C3)CC2C4)cc(C)c1Br (stereo unspecified) ? 72

I am curious: what inhibition value has been reported for CCCC(=O)Nc1nnc(-c2ccc(C)cc2C)o1 ? 26.4

I am curious: what inhibition value has been reported for COC(=O)Cc1c(C)c2ccc(OCC(=O)OCc3ccccc3)c(C)c2oc1=O ? 54

I am curious: what inhibition value has been reported for O=C1Nc2ccccc2/C1=N/N=C/C1=C(N2CCOCC2)C(=C\c2ccccc2)/CC1 ? -11.8

----------
test: M. tuberculosis growth inhibition, HTS (AID 1259417);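 note: bacteria grown with compound for 5 days at 37 °C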; settings: M. tuberculosis DsRed fluorescence growth inhibition; concentration not given here
About 760 (69%) of roughly 1,100 compounds were called active. The rule behind the calls is not given here. So high a share suggests a set chosen from earlier hits. The list shows a part of the results.
Outcome field: choose from active, inactive

Query: recorded result category for CCOC(=O)CN(C#N)c1nc(N(C)C)nc(N(C)C)n1 in this test active

Query: recorded result category for COc1ccccc1N1C(=O)c2cccc3cc([N+](=O)[O-])cc(c23)C1=O in this test active

Query: recorded result category for Cc1ccc(NC(=O)c2cc3cc(Cl)cc(Cl)c3oc2=O)c(C)c1 in this test active

Query: recorded result category for O=C(CSc1nnc(Cc2ccccc2)o1)Nc1ccc2c(c1)OCO2 in this test inactive

Query: recorded result category for C=CCn1c(=NC(=O)c2ccc([N+](=O)[O-])s2)sc2cc(S(N)(=O)=O)ccc21 in this test active

Query: recorded result category for CCOc1ccc(NC(=O)CSc2nnc(-c3ccccc3Cl)o2)cc1 in this test inactive

Query: recorded result category for COc1ccc(C(=O)N2N=C(c3ccccc3)CC2(O)C(F)(F)F)cc1 (stereo not given) in this test inactive

Query: recorded result category for O=C(OCc1nnc(-c2ccccc2)o1)c1cc(-c2cccs2)nc2ccccc12 in this test active

Query: recorded result category for COc1cccc(NC(=O)c2c(NC(=O)c3cccc(C)c3)sc3c2CCC3)c1 in this test inactive

Query: recorded result category for O=C(CSc1ccc(Br)cc1)Nc1ccccc1F in this test active

Query: recorded result category for CCOC(=O)C1CCCN(c2ccc([N+](=O)[O-])c3nonc23)C1 (stereo not given) in this test active

Query: recorded result category for Oc1ccccc1-c1n[nH]c(/C=C/c2ccc(Cl)cc2)n1 in this test inactive

Query: recorded result category for CC1CCCN(CCC(=O)c2ccc(Br)cc2)C1 (stereo not given) in this test active

Query: recorded result category for CC(C)Cn1c(N2CCN(Cc3ccc(Cl)c(Cl)c3)CC2)nc2c1c(=O)[nH]c(=O)n2C in this test active

Query: recorded result category for Cc1ccc(Oc2cc(NC(=O)CCCn3nc(C)c([N+](=O)[O-])c3C)cc([N+](=O)[O-])c2)cc1 in this test inactive

Query: recorded result category for Cc1ccc(-c2nnc(NC(=O)CCOc3ccccc3)o2)c(C)c1 in this test active

Query: recorded result category for O=C(CSc1nnc(CNc2cccc(Cl)c2)o1)OC1CCCCC1 in this test active

Query: recorded result category for Cc1ccc(C(C)C)cc1OCCCCn1ccnc1 in this test active

Query: recorded result category for COc1ccc(Cn2c(=O)c3c(n4cnnc24)-c2ccccc2CC32CCCCC2)cc1 in this test inactive

Query: recorded result category for O=C(c1ccc(Cl)cc1)c1ccc(CSc2nnc(-c3ccccc3)o2)o1 in this test active

Query: recorded result category for COc1cccc(-n2nnnc2S(=O)(=O)Cc2ccccc2)c1 in this test active

Query: recorded result category for CCCc1cc(-c2nc(-c3ccc(Br)cc3)cs2)ccn1 in this test active

Query: recorded result category for Cc1cc(Cl)cc2sc(N(CCCn3ccnc3)C(=O)c3ccco3)nc12 in this test active

Query: recorded result category for Cc1ccc(-c2ccc(OCC(=O)OCc3ccccc3)cc2)cc1 in this test active

Query: recorded result category for COC(=O)COc1ccc(-c2ccccc2)cc1 in this test active

Query: recorded result category for CCCS(=O)(=O)c1nnnn1-c1cccc(OC)c1 in this test active

Query: recorded result category for O=C(c1cccs1)N(CCCn1ccnc1)c1nc2c(Cl)cccc2s1 in this test active

Query: recorded result category for COC(=O)c1ccc(CSc2nnc(-c3ccncc3)o2)o1 in this test active

Query: recorded result category for COC(=O)c1c(NC(=O)c2cccc(OC)c2)sc2c1C(C(=O)OC)CC2 (stereo not given) in this test inactive

Query: recorded result category for O=C1NN=C2C1=NC1(CCCCC1)Cc1ccccc12 in this test active

Query: recorded result category for O=S(Cc1ccccc1)c1nc2ccccc2s1 (stereo not given) in this test active

Query: recorded result category for COc1ccc(Cc2nnc(SCC(=O)Nc3ccc(C(C)C)cc3)o2)cc1 in this test inactive

Query: recorded result category for CCOc1cc2c3c(c1)C1(C(=O)N3C(C)(C)C=C2C)C(C#N)=C(N)Oc2cc(O)ccc21 (stereo not given) in this test inactive

Query: recorded result category for COC(=O)c1ccc(NC(=O)CSc2nnc(Cc3ccc(OC)cc3)o2)cc1 in this test active

Query: recorded result category for Cc1cccc2sc(N(CCCn3ccnc3)C(=O)c3ccco3)nc12 in this test active

Query: recorded result category for CCCn1nnc(NC(=O)COc2ccc(C3CCCCC3)cc2)n1 in this test active

Query: recorded result category for Cc1ccc(-n2cnc3cc(NCc4cccs4)ccc32)cc1 in this test active

Query: recorded result category for Cc1ccc(C(C)C)c(OCCCCn2ccnc2)c1 in this test active

Query: recorded result category for CC1CCc2sc3ncnc(NCCc4ccccc4)c3c2C1 (stereo not given) in this test active

Query: recorded result category for Cc1ccc(C(C)C)c(OCc2nn(CC(=O)c3ccc(OC(F)F)cc3)c3[n+]2CCCCC3)c1 in this test active

Query: recorded result category for Cc1ccc(NCc2nnc(SCC(=O)OC3CCCCC3)o2)c(C)c1 in this test active

Query: recorded result category for COc1ccc(C(=O)CCN2CCCC(C)C2)cc1 (stereo not given) in this test inactive

Query: recorded result category for CCOc1ccc(-c2nnc(SCC(=O)Nc3cc(C)on3)o2)cc1 in this test active

Query: recorded result category for CSc1nc2nc3c(c(=O)n2[nH]1)CCCC3 in this test active

Query: recorded result category for COc1cccc(NC(=O)CSc2nnc(-c3ccc(Br)cc3)o2)c1 in this test inactive

----------
assay: M. tuberculosis growth inhibition, HTS (AID 1259417);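 note: bacteria grown with compound for 5 days at 37 °C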; conditions: M. tuberculosis growth inhibition; stronger effect = higher value; concentration not given here
Among all 1,100 compounds or so, about 760 (69%) were called active. So high a share suggests a set chosen from earlier hits. Some of the results follow.
PROPERTY NAME: inhibition (%)
Write the answer as a number in %, unit excluded.

I am curious: what inhibition value has been reported for CCOC(=O)c1c(NC(=S)NC2CCN(Cc3ccccc3)CC2)sc(C)c1-c1ccccc1 ? -12.2

I am curious: what inhibition value has been reported for Nc1nnc(Sc2ncccc2[N+](=O)[O-])s1 ? 98.6

I am curious: what inhibition value has been reported for CCN1CCc2c(sc(NC(=O)c3ccccc3)c2-c2nc3ccccc3s2)C1 ? 77.8

I am curious: what inhibition value has been reported for Cc1cc(Nc2cccc(Cl)c2)nc(NCc2ccccc2)n1 ? 90.6

I am curious: what inhibition value has been reported for COc1cc(CNC23CC4CC(CC(C4)C2)C3)ccc1OCc1ccccc1 ? 96.2

I am curious: what inhibition value has been reported for CCOC(=O)CCc1c(C)c(C#N)c2[nH]c3ccccc3n2c1=O ? 96.2

I am curious: what inhibition value has been reported for c1ccc(COc2ccccc2CNC23CC4CC(CC(C4)C2)C3)cc1 ? 3.79

I am curious: what inhibition value has been reported for CCc1nc2ccccc2n1CC(O)COc1ccc(I)cc1 (configuration not stated) ? 100

I am curious: what inhibition value has been reported for O=C(CC(SCc1ccco1)c1cccc([N+](=O)[O-])c1)c1ccco1 (configuration not stated) ? 97.7

I am curious: what inhibition value has been reported for CCOC(=O)COc1ccc2c(C#N)c3ccccn3c2c1 ? 22.1

I am curious: what inhibition value has been reported for CCOC(=O)c1sc(NC(=O)NC2CCCCC2)cc1C ? 96.2

I am curious: what inhibition value has been reported for NC(=O)c1c(NC(=O)c2ccc([N+](=O)[O-])s2)sc2c1CCN(Cc1ccccc1)C2 ? 2.21

I am curious: what inhibition value has been reported for COC(=O)CSc1ccnc2cc(Cl)ccc12 ? 74.4

I am curious: what inhibition value has been reported for CC(=O)Nc1nc2ccccc2n1Cc1ccccc1 ? 85.5

I am curious: what inhibition value has been reported for Cc1cc(Nc2ccc(Cl)cc2)nc(NCc2ccccc2)n1 ? 79.9

I am curious: what inhibition value has been reported for Oc1ccc(-c2nc3cc4ccccc4cc3nc2-c2ccccc2)cc1 ? 37.8

I am curious: what inhibition value has been reported for CC(=O)Nc1nc2ccccc2n1CCOc1ccccc1 ? 92.9

I am curious: what inhibition value has been reported for CO[C@H]1C=CO[C@@]2(C)Oc3c(C)c(O)c4c(O)c(c5c(c4c3C2=O)=NC2(CCN(CC(C)C)CC2)N=5)NC(=O)C(C)=CC=C[C@H](C)[C@H](O)[C@@H](C)[C@@H](O)[C@@H](C)[C@H](OC(C)=O)[C@@H]1C ? 101

I am curious: what inhibition value has been reported for CCOc1cc(CNC23CC4CC(CC(C4)C2)C3)ccc1OCc1cccs1 ? 95.9

I am curious: what inhibition value has been reported for Cc1cc(C)c2sc(N3CCCC3)nc2c1 ? 99.8

I am curious: what inhibition value has been reported for CC(=O)OCCNc1cc(SCc2ccco2)c2nonc2c1[N+](=O)[O-] ? 11.3

I am curious: what inhibition value has been reported for C=CCNc1nnc(Sc2ncccc2[N+](=O)[O-])s1 ? 98.2
